Experiment: PK after subcutaneous administration of solutions in dogs
Type: in vivo, Beagle dog
Settings: male, beagle, dog, plasma, sc, 12 mg/kg, dog #1; 840 h; SC 12 mg/kg, 400 mg/mL in 15% water/85% PEG 300
attributeMeasured: concentration at 840 h (nM)
Report the value in nM with no unit label.

So what does the record say about concentration at 840 h for CC(C)(C#Cc1ccc(-c2ccc(Cl)c3c(NS(C)(=O)=O)nn(CC(F)(F)F)c23)c([C@H](Cc2cc(F)cc(F)c2)NC(=O)Cn2nc(C(F)(F)F)c3c2C(F)(F)[C@@H]2C[C@H]32)n1)S(C)(=O)=O [Formula (Ia)] ?
150

----------
Assay: PK after subcutaneous administration of solutions in dogs
Type: in vivo, Beagle dog
Details: beagle, dog, plasma, sc, 6 mg/kg, dog; SC 6 mg/kg; 75 mg/mL solution (w/w %: 29.21 water, 62.55 PEG 300, 6.97 sodium salt of Formula (Ia), 1.68 poloxamer 188); mean ± SD, n=3; read-out: C21d
attributeMeasured: concentration at 21 d (nM)
Give the number; nM is assumed, so skip it.

Tell me the measured concentration at 21 d of `CC(C)(C#Cc1ccc(-c2ccc(Cl)c3c(NS(C)(=O)=O)nn(CC(F)(F)F)c23)c([C@H](Cc2cc(F)cc(F)c2)NC(=O)Cn2nc(C(F)(F)F)c3c2C(F)(F)[C@@H]2C[C@H]32)n1)S(C)(=O)=O` , please.
40

----------
Experiment: PK after oral administration in liquid-filled capsules in dogs
Format: in vivo, beagle dogs
Settings: male, beagle, dog, plasma, oral, 7.5 mg, as above (100% glycerol monocaprylocaprate LFC, 50 mg/mL); calculated based on AUC0-72h vs average IV AUC0-72h; mean ± SD, n=6
attributeMeasured: bioavailability (%)
Express it in %; write the number only.

Query (compound): CC(C)(C#Cc1ccc(-c2ccc(Cl)c3c(NS(C)(=O)=O)nn(CC(F)(F)F)c23)c([C@H](Cc2cc(F)cc(F)c2)NC(=O)Cn2nc(C(F)(F)F)c3c2C(F)(F)[C@@H]2C[C@H]32)n1)S(C)(=O)=O [Formula (Ia)] ; field requested: bioavailability
22

----------
Experiment: PK after subcutaneous administration of solutions in dogs
Format: in vivo, Beagle dog
Details: beagle, dog, plasma, sc, 12 mg/kg, dog; SC 12 mg/kg; 150 mg/mL solution (w/w %: 27.92 water, 58.04 PEG 300, 13.47 Formula (Ia), 1.1 NaOH); mean ± SD, n=3
attributeMeasured: Cmax

For `CC(C)(C#Cc1ccc(-c2ccc(Cl)c3c(NS(C)(=O)=O)nn(CC(F)(F)F)c23)c([C@H](Cc2cc(F)cc(F)c2)NC(=O)Cn2nc(C(F)(F)F)c3c2C(F)(F)[C@@H]2C[C@H]32)n1)S(C)(=O)=O` , what is its reported Cmax?
312 nM

----------
Assay: PK after subcutaneous administration of solutions in rats
Type: in vivo, Wistar Han rat
Conditions: male, Wistar Han, rat, plasma, sc, 50 mg/kg, rat #3; 168 h; SC 50 mg/kg, 300 mg/mL in 15% water/85% PEG 300
attributeMeasured: concentration at 168 h
Write the quantity with the unit trailing the number.

Entry `CC(C)(C#Cc1ccc(-c2ccc(Cl)c3c(NS(C)(=O)=O)nn(CC(F)(F)F)c23)c([C@H](Cc2cc(F)cc(F)c2)NC(=O)Cn2nc(C(F)(F)F)c3c2C(F)(F)[C@@H]2C[C@H]32)n1)S(C)(=O)=O` has what concentration at 168 h?
137 nM
